B1: CSNK1G1 (parent)
chain: GSLPWQGLKADTLKERYQKIGDTK

# Variants of: B1
# ASSAY_TEXT: protein stability index of a GFP-peptide fusion (GPS, HEK-293T) (PSI 1-6); higher = more stable;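 further: lentivirally expressed fusions sorted by FACS into six bins by GFP to DsRed ratio, PSI derived from sequencing read proportions per bin multiplied by bin number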
# CONDITION_PARAMETERS: c terminus: a fixed tail appended
READOUT_TYPE: protein stability index
# print the numeric value only

VARIANT_ID	protein stability index
K24S	3.79
I20W	3.62
L13W	3.05
I20K	4.33
L8I	4.13

# query: protein stability index of entry T12R
4.33

# query: protein stability index of entry W5T
5.09

# query: protein stability index of entry K9Y
4.13

# query: protein stability index of entry L3C
4.31

# query: protein stability index of entry L3M
4.54

# query: protein stability index of entry G1H
4

# query: protein stability index of entry D22W
2.64

# query: protein stability index of entry L3R
3.81

# query: protein stability index of entry S2T
4.21

# query: protein stability index of entry G21C
3.29

# query: protein stability index of entry G7K
3.75

# query: protein stability index of entry D11M
3.32

# query: protein stability index of entry T12V
4.2

# query: protein stability index of entry G7F
2.42

# query: protein stability index of entry P4H
4.17

# query: protein stability index of entry Q6Y
2.89

# query: protein stability index of entry T12F
2.86

# query: protein stability index of entry D22P
3.7

# query: protein stability index of entry K19G
4.17
